Every entry's value here was drawn from PubChem BioAssay AID608.

# experimental.system: Peptidyl-prolyl cis-trans isomerase FKBP1A (Homo sapiens) (UniProt P62942)
# Sequence (P62942 whole entry, looked up): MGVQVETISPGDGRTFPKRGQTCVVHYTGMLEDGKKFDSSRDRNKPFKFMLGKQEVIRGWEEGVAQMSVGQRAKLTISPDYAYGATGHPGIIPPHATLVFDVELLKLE
# assay.name: small-molecule binding to FKBP12 – biophysical, NMR detection (AID 608)
# condition.label: purified FKBP12
Active and inactive are the calls of the source. No rule for the calls is given here.
Outcome codes: T for active, F for inactive

molecule: CC12CCCC(O)(C1)C1CC(C)(C)C1CC2 (stereo unspecified)
classification: F

molecule: NC1CN2CCC1CC2 (stereo unspecified)
classification: F

molecule: CC(C)=CCc1c(O)cc2occ(-c3ccc4c(c3)OCO4)c(=O)c2c1O
classification: F

molecule: CCOC(=O)c1c(C)nc2c(C#N)cnn2c1C
classification: F

molecule: Nc1ccc(NC(=O)c2ccco2)c(Cl)c1
classification: F

molecule: Cc1ccc2cc(C(=O)O)ccc2n1
classification: F

molecule: S=c1nc(C2CC2)[nH]c2ccccc12
classification: F

molecule: Nc1cc(F)cc(F)c1
classification: F

molecule: O=C(O)C1CCN(c2ccc(C(F)(F)F)cn2)CC1
classification: F

molecule: O=C(Nc1ccccc1C(F)(F)F)N1CCCCCC1
classification: F

molecule: CCc1sc(C(=O)NC)cc1Br
classification: F

molecule: Cc1cc(C)n(-c2ccc(N)cc2)n1
classification: F

molecule: OCC1COc2ccccc2O1 (stereo unspecified)
classification: F

molecule: C=CCn1c(=S)[nH]c2ccc(Br)cc2c1=O
classification: F

molecule: COc1ccc(-c2coc3cc(O)ccc3c2=O)cc1
classification: F

molecule: O=C(O)C1COc2ccccc2O1 (stereo unspecified)
classification: F

molecule: CSc1nc(-c2ccco2)nn1S(C)(=O)=O
classification: F

molecule: COc1cc2c(cc1-c1coc3c4c(c(OC)cc3c1=O)OC(C)(C)C=C4)OCO2
classification: F

molecule: Nc1cccc(S(=O)(=O)N2CCCC2)c1
classification: F

molecule: O=C(c1ccccc1)c1ccccc1C(=O)N1CCCC1
classification: F

molecule: CC(=O)Nc1ccc(S(=O)(=O)NCC2CCCO2)cc1 (stereo unspecified)
classification: F

molecule: Cc1cc(C(=O)NN2CCOCC2)c(C)o1
classification: F

molecule: CCOc1ccc2ccccc2c1C(=O)N1CCOCC1
classification: F

molecule: O=c1[nH]c2sc3c(c2c2ncnn12)CCCC3
classification: F

molecule: O=c1c(-c2ccco2)[n+]([O-])c2ccccc2n1O
classification: F

molecule: C[C@]12CCC3C(CC[C@H]4C[C@@H](O)CC[C@]34C)C1CCC2=O (stereo partly specified)
classification: F

molecule: O=[N+]([O-])c1ccc(NS(=O)(=O)N2CCCCC2)cc1
classification: T

molecule: CNC(=O)C(=O)Nc1ccc(F)cc1
classification: F

molecule: O=C(O)CN(CCCc1ccccc1)CC(=O)O
classification: F

molecule: CC(C)NC(=S)NCc1cnn(C)c1
classification: F

molecule: Nc1ccc(C(=O)NCC2CCCO2)cc1 (stereo unspecified)
classification: F

molecule: O=c1c(-c2cc(O)c(O)c(O)c2)coc2cc(O)c(O)c(O)c12
classification: F

molecule: O=C1C=CC2=C3c4cc(O)c(O)cc4C[C@@]3(O)COC2=C1
classification: F

molecule: Cc1cc(C)n(C/C=C/Cn2nc(C)cc2C)n1
classification: F

molecule: O=C(NCc1ccco1)c1ccc(=O)[nH]c1
classification: F

molecule: Cc1nccc2c1[nH]c1ccccc12
classification: F

molecule: c1ccc(Cc2nnc3sc(-c4cccnc4)nn23)cc1
classification: F

molecule: O=CN1CCN(C(=O)c2ccccc2F)CC1
classification: F

molecule: CC(CCC(=O)O)[C@H]1CCC2C3CC[C@@H]4C[C@H](O)CC[C@]4(C)C3C[C@H](O)[C@@]21C (stereo partly specified)
classification: F

molecule: CC(C)c1ccc2c(c1O)CC[C@H]1C3=C(CC[C@]21C)C(=O)OC3
classification: F

molecule: COCCn1c(C)cc(O)cc1=O
classification: F

molecule: NS(=O)(=O)c1ccc2c(c1)OCCO2
classification: F

molecule: NC(=O)CSc1nc2ncnc(N)c2[nH]1
classification: F

molecule: Nc1c2c3c(sc2nc(=O)n1N)CCCC3
classification: F

molecule: CN1CCN(CC(=O)N2CCc3ccccc32)CC1
classification: F

molecule: Cc1oc(-c2ccccc2)nc1CCO
classification: F
